The measured values listed here are drawn from ChEMBL document CHEMBL5331072.

# Assay info: Solubility of compound at pH 7.4 measured for 12 hrs
# Assay type: physicochemical
# Condition details: buffer
Measurement name: solubility at 12 h

Req: Reported solubility at 12 h for Cc1cc(C(N)=O)c(-c2cccc(OC(=O)NCCCCCCc3ccccc3)c2)o1 : what is it?
Resp: < 1 µM

----------
# Assay info: Solubility of compound at pH 3 measured for 24 hrs
# Type: physicochemical
# Condition details: buffer
Criterion: solubility at 24 h meeting or surpassing 200 µM. Met: Fulfilled. Not met: Not fulfilled.

Examples from the recorded data:
Req: Given the entry NC(=O)c1ccn(-c2cccc(OC(=O)NCCCCCCc3ccccc3)c2)c1 , answer whether its solubility at 24 h meets or surpasses 200 µM.
Resp: Not fulfilled

Req: Can Cc1cc(C(N)=O)c(-c2cccc(OC(=O)N3CCC(NCCc4ccccc4)CC3)c2)o1 be said to have solubility at 24 h at or above 200 µM?
Resp: Fulfilled

Req: Would you say Cc1cc(C(N)=O)c(-c2cccc(OC(=O)N3CCN(CCCc4ccccc4)CC3)c2)o1 shows solubility at 24 h at minimum 200 µM?
Resp: Not fulfilled

---
Req: Textbook exercise: given the entry Cc1cc(C(N)=O)c(-c2cccc(OC(=O)N3CCC(NCCCc4ccccc4)CC3)c2)o1 , state whether its solubility at 24 h is greater than or equal to 200 µM.
Resp: Fulfilled

Req: Item O=C(Oc1cccc(-c2nn[nH]n2)c1)N1CCN(CCCc2ccccc2)CC1 with solubility at 24 h of 200 µM or above?
Resp: Fulfilled

Req: Is the recorded value of solubility at 24 h equal to or greater than 200 µM for this compound? Cc1cc(C(N)=O)c(-c2cccc(OC(=O)NC3CCN(CCc4ccccc4)CC3)c2)o1
Resp: Fulfilled

Req: Does solubility at 24 h meet or surpass 200 µM for NC(=O)c1cn(-c2cccc(OC(=O)N3CCN(CCCc4ccccc4)CC3)c2)nn1 ?
Resp: Fulfilled

Req: State whether the measured solubility at 24 h reaches 200 µM, counting equality as reaching it, for Cc1cc(C(=O)O)c(-c2cccc(OC(=O)N3CCN(CCCc4ccccc4)CC3)c2)o1
Resp: Fulfilled

Req: Decide: is the reported value of solubility at 24 h for NC(=O)c1ccn(-c2cccc(OC(=O)N3CCN(CCCc4ccccc4)CC3)c2)c1 equal to or greater than 200 µM?
Resp: Fulfilled
